system: 616215-338-R-J1-PDC complex spheroid viability; test: Anticancer human tumor 616215-338-R-J1-PDC patient-derived colon adenocarcinoma cell line growth inhibition [POLQ]; details: second compound 0.0316 µM; first compound 0.1 µM; active compounds read low
Let's look at some molecules and their measured viability, T/C.
Reply with just the number (in %).

Worked set:
C=CC(=O)N1CCN(c2nc(=O)n(-c3c(C)ccnc3C(C)C)c3nc(-c4c(O)cccc4F)c(F)cc23)C(C)C1 (stereo unspecified) + Cc1cccc(N(C)C(=O)C2C(O)CCN2c2nc(C)cc(C(F)(F)F)c2C#N)c1: 95.3
CC[C@@]1(O)C(=O)OCc2c1cc1n(c2=O)Cc2cc3c(CN(C)C)c(O)ccc3nc2-1 + COC1C(OC(N)=O)C(O)C(Oc2ccc3c(O)c(NC(=O)c4ccc(O)c(CC=C(C)C)c4)c(=O)oc3c2C)OC1(C)C: 81.7
COc1cc2cc(C(=O)CCC(=O)O)sc2cc1OC + COC1C(OC(N)=O)C(O)C(Oc2ccc3c(O)c(NC(=O)c4ccc(O)c(CC=C(C)C)c4)c(=O)oc3c2C)OC1(C)C: 103
CNCc1ccc(-c2[nH]c3cc(F)cc4c3c2CCNC4=O)cc1 + Nc1ccc(C#CCN(C(=O)Cc2ncc(C(F)(F)F)cc2C(F)(F)F)c2ccc(F)cc2)nn1: 107
O=C(Nc1ccc(O)c(NS(=O)(=O)c2ccc(F)cc2)c1)c1ccc(-c2ccccc2)cc1 + Nc1ccc(C#CCN(C(=O)Cc2ncc(C(F)(F)F)cc2C(F)(F)F)c2ccc(F)cc2)nn1: 105

--- query ---
Query string: I am curious: what viability, T/C value has been reported for O=c1[nH]cc(F)c(=O)[nH]1 + Cc1cccc(N(C)C(=O)C2C(O)CCN2c2nc(C)cc(C(F)(F)F)c2C#N)c1 ?
Result string: 108

----------
test system: 616215-338-R-J1-PDC complex spheroid viability; test: Anticancer human tumor 616215-338-R-J1-PDC cell line growth inhibition [POLQ]; conditions: second compound 0.0316 µM; first compound 3.16 µM; active compounds read low;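 further: spheroids exposed to compounds for one week before readout; percent viability relative to DMSO vehicle wells taken as 100%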
Measured Quantity: viability, T/C (%)
Reply with just the number (in %).

CCc1cc2c(N3CCc4c(cc(Cn5ccnc5)cc4-c4cn(C)nc4C(F)(F)F)C3=O)ccnc2c(OC)n1 + Cc1cccc(N(C)C(=O)C2C(O)CCN2c2nc(C)cc(C(F)(F)F)c2C#N)c1: 63.9

Query string: Find the measured viability, T/C: item CC1COCCN1c1cc(-c2ccnn2C)c2ccnc(-c3ccn[nH]3)c2n1 (stereo not drawn) + COC1C(OC(N)=O)C(O)C(Oc2ccc3c(O)c(NC(=O)c4ccc(O)c(CC=C(C)C)c4)c(=O)oc3c2C)OC1(C)C , target or system 616215-338-R-J1-PDC complex spheroid viability.
Result string: 31.5

Query string: Find the measured viability, T/C: item COc1cccc2c1C(=O)c1c(O)c3c(c(O)c1C2=O)CC(O)(C(=O)CO)CC3OC1CC(N)C(O)C(C)O1 (stereo not drawn) + Nc1ccc(C#CCN(C(=O)Cc2ncc(C(F)(F)F)cc2C(F)(F)F)c2ccc(F)cc2)nn1 , target or system 616215-338-R-J1-PDC complex spheroid viability.
Result string: 1.47

----------
system: 616215-338-R-J1-PDC complex spheroid viability; experiment: Anticancer human tumor 616215-338-R-J1-PDC cell line growth inhibition [POLQ]; settings: second compound 0.0316 µM; first compound 1 µM; active compounds read low;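 further: spheroids exposed to compounds for one week before readout; percent viability relative to DMSO vehicle wells taken as 100%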
Mark condition met only for viability, T/C values smaller than 90%; exact matches and larger values are condition not met.

Solved entries (count: 5):
CC1COCCN1c1cc(C2(S(C)(=N)=O)CC2)nc(-c2ccnc3[nH]ccc23)n1 (stereo unspecified) + Nc1ccc(C#CCN(C(=O)Cc2ncc(C(F)(F)F)cc2C(F)(F)F)c2ccc(F)cc2)nn1: condition not met
CNCc1ccc(-c2[nH]c3cc(F)cc4c3c2CCNC4=O)cc1 + Cc1cccc(N(C)C(=O)C2C(O)CCN2c2nc(C)cc(C(F)(F)F)c2C#N)c1: condition not met
CC(C)n1c(=O)n(C)c2cnc3cc(F)c(-c4ccc(OCCCN5CCCCC5)nc4)cc3c21 + Nc1ccc(C#CCN(C(=O)Cc2ncc(C(F)(F)F)cc2C(F)(F)F)c2ccc(F)cc2)nn1: condition not met
O=C(c1cc(Cc2n[nH]c(=O)c3ccccc23)ccc1F)N1CCN(C(=O)C2CC2)CC1 + Cc1cccc(N(C)C(=O)C2C(O)CCN2c2nc(C)cc(C(F)(F)F)c2C#N)c1: condition not met
COc1cc(C2c3cc4c(cc3C(OC3OC5COC(C)OC5C(O)C3O)C3COC(=O)C23)OCO4)cc(OC)c1O (stereo unspecified) + COC1C(OC(N)=O)C(O)C(Oc2ccc3c(O)c(NC(=O)c4ccc(O)c(CC=C(C)C)c4)c(=O)oc3c2C)OC1(C)C: condition met

Query string: Record O=c1[nH]cc(F)c(=O)[nH]1 + COC1C(OC(N)=O)C(O)C(Oc2ccc3c(O)c(NC(=O)c4ccc(O)c(CC=C(C)C)c4)c(=O)oc3c2C)OC1(C)C : is its viability, T/C strictly below 90%?
Result string: condition met

Query string: Record C=CC(=O)N1CCN(c2nc(=O)n(-c3c(C)ccnc3C(C)C)c3nc(-c4c(O)cccc4F)c(F)cc23)C(C)C1 (stereo unspecified) + COC1C(OC(N)=O)C(O)C(Oc2ccc3c(O)c(NC(=O)c4ccc(O)c(CC=C(C)C)c4)c(=O)oc3c2C)OC1(C)C : is its viability, T/C strictly below 90%?
Result string: condition not met

Query string: Record COc1cccc(OCCCN)c1-c1cc(Nc2cnc(C#N)cn2)n[nH]1 + Cc1cccc(N(C)C(=O)C2C(O)CCN2c2nc(C)cc(C(F)(F)F)c2C#N)c1 : is its viability, T/C strictly below 90%?
Result string: condition met

Query string: Record O=c1[nH]cc(F)c(=O)[nH]1 + Cc1cccc(N(C)C(=O)C2C(O)CCN2c2nc(C)cc(C(F)(F)F)c2C#N)c1 : is its viability, T/C strictly below 90%?
Result string: condition met

Query string: Record CC1COCCN1c1cc(C2(S(C)(=N)=O)CC2)nc(-c2ccnc3[nH]ccc23)n1 (stereo unspecified) + Cc1cccc(N(C)C(=O)C2C(O)CCN2c2nc(C)cc(C(F)(F)F)c2C#N)c1 : is its viability, T/C strictly below 90%?
Result string: condition not met

Query string: Record COc1cc2cc(C(=O)CCC(=O)O)sc2cc1OC + Nc1ccc(C#CCN(C(=O)Cc2ncc(C(F)(F)F)cc2C(F)(F)F)c2ccc(F)cc2)nn1 : is its viability, T/C strictly below 90%?
Result string: condition not met

Query string: Record C#Cc1c(F)ccc2cc(O)cc(-c3ncc4c(N5CC6CCC(C5)N6)nc(OCC56CCCN5CC(F)C6)nc4c3F)c12 (stereo unspecified) + COC1C(OC(N)=O)C(O)C(Oc2ccc3c(O)c(NC(=O)c4ccc(O)c(CC=C(C)C)c4)c(=O)oc3c2C)OC1(C)C : is its viability, T/C strictly below 90%?
Result string: condition not met

Query string: Record O=C(Nc1ccc(O)c(NS(=O)(=O)c2ccc(F)cc2)c1)c1ccc(-c2ccccc2)cc1 + Nc1ccc(C#CCN(C(=O)Cc2ncc(C(F)(F)F)cc2C(F)(F)F)c2ccc(F)cc2)nn1 : is its viability, T/C strictly below 90%?
Result string: condition not met

Query string: Record Nc1ccn(C2OC(CO)C(O)C2(F)F)c(=O)n1 (stereo unspecified) + Nc1ccc(C#CCN(C(=O)Cc2ncc(C(F)(F)F)cc2C(F)(F)F)c2ccc(F)cc2)nn1 : is its viability, T/C strictly below 90%?
Result string: condition met

Query string: Record COc1cccc2c1C(=O)c1c(O)c3c(c(O)c1C2=O)CC(O)(C(=O)CO)CC3OC1CC(N)C(O)C(C)O1 (stereo unspecified) + COC1C(OC(N)=O)C(O)C(Oc2ccc3c(O)c(NC(=O)c4ccc(O)c(CC=C(C)C)c4)c(=O)oc3c2C)OC1(C)C : is its viability, T/C strictly below 90%?
Result string: condition met

Query string: Record CCc1cc2c(N3CCc4c(cc(Cn5ccnc5)cc4-c4cn(C)nc4C(F)(F)F)C3=O)ccnc2c(OC)n1 + COC1C(OC(N)=O)C(O)C(Oc2ccc3c(O)c(NC(=O)c4ccc(O)c(CC=C(C)C)c4)c(=O)oc3c2C)OC1(C)C : is its viability, T/C strictly below 90%?
Result string: condition not met

Query string: Record O=c1[nH]cc(F)c(=O)[nH]1 + Nc1ccc(C#CCN(C(=O)Cc2ncc(C(F)(F)F)cc2C(F)(F)F)c2ccc(F)cc2)nn1 : is its viability, T/C strictly below 90%?
Result string: condition met

Query string: Record COc1cccc(OCCCN)c1-c1cc(Nc2cnc(C#N)cn2)n[nH]1 + Nc1ccc(C#CCN(C(=O)Cc2ncc(C(F)(F)F)cc2C(F)(F)F)c2ccc(F)cc2)nn1 : is its viability, T/C strictly below 90%?
Result string: condition met

Query string: Record CCc1cc2c(N3CCc4c(cc(Cn5ccnc5)cc4-c4cn(C)nc4C(F)(F)F)C3=O)ccnc2c(OC)n1 + Nc1ccc(C#CCN(C(=O)Cc2ncc(C(F)(F)F)cc2C(F)(F)F)c2ccc(F)cc2)nn1 : is its viability, T/C strictly below 90%?
Result string: condition met

Query string: Record CCc1cc2c(N3CCc4c(cc(Cn5ccnc5)cc4-c4cn(C)nc4C(F)(F)F)C3=O)cc(C)nc2c(OC)n1 + Cc1cccc(N(C)C(=O)C2C(O)CCN2c2nc(C)cc(C(F)(F)F)c2C#N)c1 : is its viability, T/C strictly below 90%?
Result string: condition met
